pIC50: −log10 of the molar value.
Hi, quick share: literature pIC50 data for Human Factor XIIa (Homo sapiens, UniProt P00748), several sources combined.

**Q:** Value wanted: pIC50 (Human Factor XIIa (Homo sapiens, UniProt P00748)) of entry `CN1CCC(CNc2cnc(C(=O)NCc3ccc4c(N)nccc4c3)cn2)CC1`
**A:** 5.00 to 5.52

**Q:** Item: `CN(C)c1ccccc1CNCc1sc(C(=O)NCc2ccc3c(N)nccc3c2)cc1Cl` Test system: Human Factor XIIa (Homo sapiens, UniProt P00748) Read-out: pIC50 Value: ?
**A:** 4.40 to 5.00

**Q:** Find the measured pIC50: item `CC(C)CCNc1ncc(Cl)cc1C(=O)NCc1ccc2c(N)nccc2c1` , target or system Human Factor XIIa (Homo sapiens, UniProt P00748).
**A:** 4.40 to 5.00

**Q:** For Human Factor XIIa (Homo sapiens, UniProt P00748), provide pIC50 of `CN1CCC(COc2cnc(NCc3ccc4c(N)nccc4c3)cn2)CC1` please.
**A:** > 6.00

**Q:** Record `CC(C)N1CCC(Nc2ncc(C(=O)NCc3ccc4c(N)nccc4c3)cc2Cl)CC1` : what is its pIC50 with Human Factor XIIa (Homo sapiens, UniProt P00748)?
**A:** 5.00 to 5.52

**Q:** What is its pIC50 for Human Factor XIIa (Homo sapiens, UniProt P00748)? Entry: CNS(=O)(=O)N1CCc2c(N)nn(C(=O)C3CCNc4ccccc43)c2C1 (stereo not drawn)
**A:** < 4.15

**Q:** Notebook entry, Human Factor XIIa (Homo sapiens, UniProt P00748) assay: pIC50 of `Nc1nccc2cc(CNC(=O)c3nccnc3NCC3CCN(CCO)CC3)ccc12` = ?
**A:** 6.00 to 6.52

**Q:** Param readout = pIC50; param system = Human Factor XIIa (Homo sapiens, UniProt P00748); param query = `COc1ccc(-n2cc(C(F)F)nn2)c(CNC(=O)c2nccnc2NCC2CCN(C)CC2)c1F` ; response: value
**A:** 4.40 to 5.00

**Q:** Give Human Factor XIIa (Homo sapiens, UniProt P00748) pIC50 for Nc1nn(C(=O)c2cccc3[nH]ccc23)c2c1CCCC2 (single isomer, unassigned)
**A:** < 4.30

**Q:** Form field: pIC50 recorded for `COc1ccc(NCc2sc(C(=O)NCc3ccc4c(N)nccc4c3)cc2Cl)cc1` with Human Factor XIIa (Homo sapiens, UniProt P00748) (enter value)
**A:** 4.40 to 5.00

**Q:** Form entry - test system: Human Factor XIIa (Homo sapiens, UniProt P00748); read-out: pIC50; molecule: `CN1CCC(CNc2nccnc2C(=O)Nc2ccc3ccnc(N)c3c2)CC1`
**A:** 4.40 to 5.00

**Q:** Notebook: pull reported pIC50 for Human Factor XIIa (Homo sapiens, UniProt P00748), entry `CC(=O)N1CCN(Cc2sc(C(=O)NCc3ccc4c(N)nccc4c3)cc2Cl)CC1`
**A:** 4.40 to 5.00

**Q:** Notebook entry, Human Factor XIIa (Homo sapiens, UniProt P00748) assay: pIC50 of `Cc1c(C(=O)NCc2ccc3c(N)nccc3c2)cc(-c2ccccc2)n1CCCN1CCOCC1` = ?
**A:** 4.40 to 5.00

**Q:** Give Human Factor XIIa (Homo sapiens, UniProt P00748) pIC50 for `CN1CCN(CCCNc2ncc(Cl)cc2C(=O)NCc2ccc3c(N)nccc3c2)CC1`
**A:** 5.52 to 6.00

**Q:** Query pIC50 on Human Factor XIIa (Homo sapiens, UniProt P00748) for `Nc1nccc2cc(CNC(=O)c3cc(Cl)cnc3NCC3CCN(C4CCOCC4)CC3)ccc12`
**A:** 5.52 to 6.00

**Q:** What measured pIC50 is associated with `CN(Cc1ccccc1)c1ncc(Cl)cc1C(=O)NCc1ccc2c(N)nccc2c1` on Human Factor XIIa (Homo sapiens, UniProt P00748)?
**A:** 4.40 to 5.00

**Q:** Human Factor XIIa (Homo sapiens, UniProt P00748) / pIC50 / `COCc1nn(Cc2ccc(Cn3cc(C)cn3)cc2)cc1C(=O)NCc1c(-n2cnnn2)ccc(OC)c1F` : value?
**A:** < 4.40

**Q:** Recorded pIC50 for `CN(C)CCNc1ncc(C(=O)NCc2ccc3c(N)nccc3c2)cc1Cl` with Human Factor XIIa (Homo sapiens, UniProt P00748), please?
**A:** 4.40 to 5.00

====

Before we begin, note that these pIC50 values for UniProt P00748 originate from several publications.
pIC50: −log10 of the molar value.

**Q:** Short answer please: pIC50, UniProt P00748, entry `Cc1cc(CN)cc(C)c1CNC(=O)c1cc(Cl)c(C)s1`
**A:** 5.00 to 5.52

**Q:** Which measured pIC50 belongs to Nc1nn(C(=O)[C@@H]2CCNc3c(Cl)cccc32)c2c1CC[C@@H](O)C2 (single isomer, unassigned) , tested on UniProt P00748?
**A:** < 4.00

**Q:** Param readout= pIC50; system= UniProt P00748; entry= `Nc1nccc2cc(CNC(=O)c3cnc(Nc4ccccc4)c(Cl)c3)ccc12` ; returns value.
**A:** 4.40 to 5.00

**Q:** Give recorded pIC50 with UniProt P00748 for the following compound: `Nc1nccc2cc(CNC(=O)c3cc(Cl)cnc3NCc3ccccn3)ccc12`
**A:** 5.00 to 5.52

**Q:** // fetch UniProt P00748 pIC50 for `CCOc1ccc(C[C@@H](NC(=O)c2ccccc2)C(=O)N[C@H](C(=O)NCc2ccc(CN)cc2)[C@H](O)c2ccccc2)cc1`
**A:** < 5.00

**Q:** Test system UniProt P00748; read-out pIC50; what value for `Nc1nccc2cc(CNC(=O)c3cc(Cl)cnc3NCC3CCN(Cc4cccnc4)CC3)ccc12` ?
**A:** 6.00 to 6.52

**Q:** // map `Nc1nccc2cc(CNC(=O)c3cc(Cl)c(CN4CCN(c5ccncc5)CC4)s3)ccc12` to recorded pIC50 (system: UniProt P00748)
**A:** 5.00 to 5.52

====

Multiple publications report IC50 for Human Factor XIIa (Homo sapiens, UniProt P00748); what follows is a combined list.

**Q:** Can you look up IC50 on Human Factor XIIa (Homo sapiens, UniProt P00748) for `COc1cccc(Oc2ncc(C(=O)NCc3ccc4c(N)nccc4c3)cc2Cl)c1` ?
**A:** 10 to 40 µM

**Q:** Please state recorded IC50 (tested on Human Factor XIIa (Homo sapiens, UniProt P00748)) of `Nc1nccc2cc(CNC(=O)c3cc(Cl)cnc3Oc3cccc(N4CCCC4=O)c3)ccc12`
**A:** 10 to 40 µM

**Q:** Reported IC50 for Human Factor XIIa (Homo sapiens, UniProt P00748), given `CN1CCC(COCc2sc(C(=O)NCc3ccc4c(N)nccc4c3)cc2Cl)CC1` ?
**A:** 1 to 3 µM

**Q:** Query IC50 on Human Factor XIIa (Homo sapiens, UniProt P00748) for `Nc1nccc2cc(CNC(=O)c3cnc(NCC4CCN(Cc5ccccc5)CC4)c(Cl)c3)ccc12`
**A:** 3 to 10 µM

**Q:** What IC50 appears in the records for this molecule with Human Factor XIIa (Homo sapiens, UniProt P00748)? `Nc1nccc2cc(CNc3ccc(COC4CCNCC4)cn3)ccc12`
**A:** 3 to 10 µM

**Q:** Value wanted: IC50 (Human Factor XIIa (Homo sapiens, UniProt P00748)) of entry `Nc1nccc2cc(CNC(=O)c3cc(Cl)cnc3OCCCN3CCCCC3)ccc12`
**A:** 10 to 40 µM

**Q:** Lab note: need IC50 for Nc1nn(C(=O)C2CCNc3ccc(F)cc32)c2c1CCN(S(=O)(=O)C(F)F)C2 (stereo not drawn) on Human Factor XIIa (Homo sapiens, UniProt P00748), anyone have it?
**A:** 16 µM

**Q:** So what IC50 did `Nc1nccc2cc(CNC(=O)c3cc(Cl)c(CN4Cc5ccccc5C4)s3)ccc12` get with Human Factor XIIa (Homo sapiens, UniProt P00748)?
**A:** 10 to 40 µM

**Q:** Notebook entry, Human Factor XIIa (Homo sapiens, UniProt P00748) assay: IC50 of CS(=O)(=O)N1CCc2nn(C(=O)C3CCNc4ccccc43)c(N)c2C1 (stereo not drawn) = ?
**A:** 1.5 µM

**Q:** Please state recorded IC50 (tested on Human Factor XIIa (Homo sapiens, UniProt P00748)) of `COCc1c(C(=O)NCc2cnc3[nH]cc(Cl)c3c2)cnn1Cc1cc2c(cc1F)CCN(C)C2`
**A:** 1 to 3 µM

**Q:** What is its IC50 for Human Factor XIIa (Homo sapiens, UniProt P00748)? Entry: Cc1ccc2c(c1)C(C(=O)n1nc3c(c1N)CCN(S(C)(=O)=O)C3)CCN2 (stereo not drawn)
**A:** 0.3 µM

**Q:** What measured IC50 is associated with `Nc1nccc2cc(CNC(=O)c3cc(Cl)c(COCc4cncnc4)s3)ccc12` on Human Factor XIIa (Homo sapiens, UniProt P00748)?
**A:** 3 to 10 µM
